Data provenance is patent US20260124214A1.

For Human Polθ polymerase domain (aa1820-2590) (Homo sapiens), measured Ki is reported for the entries below.
Counter-ions that a name gives are not always drawn.
Express it in nM; write the number only.

Study these solved cases before continuing.
Task: Would you mind telling me what Ki value was observed for Cc1cc(C(F)(F)F)cc(N2C(=O)C[C@@H]3CN(C[C@@H]4CN(C)CCO4)c4c(Cl)cccc4N(C)C(=O)[C@H]32)n1 (racemic) [Example 120b, hydrochloride] ?
Output: 4.14

Task: Also, Cc1cc(C(F)(F)F)cc(N2C(=O)C[C@@H]3CN(CCN4CCNCC4)c4c(C)cccc4N(C)C(=O)[C@H]32)n1 please.
Output: 1.2

Task: Also, Cc1cc(C(F)(F)F)cc(N2C(=O)C[C@@H]3CN(CCN4CCOCC4)c4c(Cl)cccc4N(C)C(=O)[C@H]32)n1 please.
Output: 1.82

Task: Also, Cc1cc(C(F)(F)F)cc(N2C(=O)CC3CN(C4CC(OCc5ccccc5)C4)c4c(F)cccc4N(C)C(=O)C32)n1 (single isomer, unassigned) [Example 92a] please.
Output: 9.06

Continuing:
Task: Would you mind telling me what Ki value was observed for Cc1cc(C(F)(F)F)cc(N2C(=O)C[C@@H]3CN(CCN4CCNCC4)c4c(C)cccc4NC(=O)[C@H]32)n1 ?
Output: 3.04
